pIC50: −log10 of the molar value.
Record set of pIC50 for target or system Coagulation factor X (Homo sapiens, UniProt P00742).

compound-smiles: N=C(N)NCCC[C@H](NC(=O)[C@H](Cc1cc(F)c(F)c(F)c1)NC(=O)[C@@H](Cc1ccccc1)NS(=O)(=O)Cc1ccccc1)C(=O)c1nccs1
pIC50: 6.60
//
compound-smiles: CN(C)CCCC[C@H](NC(=O)[C@@H](Cc1ccccc1)NS(=O)(=O)Cc1ccccc1)C(=O)N[C@@H](CCCNC(=N)N)C(=O)c1nccs1
pIC50: 5.77
//
compound-smiles: Cc1ccc(C[C@H](NC(=O)[C@@H](Cc2ccccc2)NS(=O)(=O)Cc2ccccc2)C(=O)N[C@@H](CCCN=C(N)N)C(=O)c2nccs2)cc1
pIC50: 6.24
//
compound-smiles: N=C(N)NCCC[C@H](NC(=O)[C@H](Cc1ccc2ccccc2c1)NC(=O)[C@@H](Cc1ccccc1)NS(=O)(=O)Cc1ccccc1)C(=O)c1nccs1
pIC50: 6.11
//
compound-smiles: N=C(N)NCCC[C@H](NC(=O)[C@H](Cc1ccc(I)cc1)NC(=O)[C@@H](Cc1ccccc1)NS(=O)(=O)Cc1ccccc1)C(=O)c1nccs1
pIC50: 6.30
//
compound-smiles: N=C(N)NCCC[C@H](NC(=O)[C@H](COCc1ccccc1)NC(=O)[C@@H](Cc1ccccc1)NS(=O)(=O)Cc1ccccc1)C(=O)c1nccs1
pIC50: 6.51
//
compound-smiles: N=C(N)NCCC[C@H](NC(=O)[C@H](Cc1cc(F)cc(F)c1)NC(=O)[C@@H](Cc1ccccc1)NS(=O)(=O)Cc1ccccc1)C(=O)c1nccs1
pIC50: 6.74

Value source: ChEMBL document CHEMBL1145084
